Each record here notes measured MIC.
Tested on: Enterococcus faecalis
ASSAY_NOTES: Antimicrobial activity against Enterococcus faecalis NKH18 harboring pMG2200-like and pMG2201-like plasmids after 24 hrs by agar dilution method
Assay type: functional
ASSAY_SETUP: NKH18, 24 h
// note: answer is a bare numeric in µg/mL

SMILES_NOTATION	TESTED_SYSTEM	MIC / µg/mL
CN[C@@H]1[C@H](O[C@H]2[C@H](O[C@H]3[C@H](O)[C@@H](O)[C@H](N=C(N)N)[C@@H](O)[C@@H]3N=C(N)N)O[C@@H](C)[C@]2(O)C=O)O[C@@H](CO)[C@H](O)[C@H]1O	Enterococcus faecalis	32
O=C(O)c1cn(C2CC2)c2cc(N3CCNCC3)c(F)cc2c1=O	Enterococcus faecalis	64
CN(C)[C@@H]1C(O)=C(C(N)=O)C(=O)[C@@]2(O)C(O)=C3C(=O)c4c(O)cccc4[C@@](C)(O)[C@H]3C[C@@H]12	Enterococcus faecalis	32

Now take the following compound into account.
Recorded MIC for O=C(N[C@H](CO)[C@H](O)c1ccc([N+](=O)[O-])cc1)C(Cl)Cl , please? 8

This collection of values is drawn from ChEMBL document CHEMBL1629622.
